Task for the reader: assign each of the following compounds its reported Ca conc. ± standard error (average blood calcium concentration).
# Test system: Rat Hypercalcemia Induced by PTHrp(1-34)
# test.details: Rat hypercalcemia induced by PTHrp(1-34), oral administration
# Type: in vivo, Wistar rats
# experimental.setup: 40 mg/kg orally; 4 h later PTHrp(1-34) 5 nmole/kg i.v.; blood 1 h after PTHrp; n = 5; PTHrp-only group 11.87 ± 0.14, untreated 11.42 ± 0.14
Report only the number, with the unit mg/dL understood.

[Q] State, in one line, measured Ca conc. ± standard error (average blood calcium concentration) of CC(C)C[C@H](NC(=O)[C@H]1O[C@@H]1C(=O)O)C(=O)NCCCCN=C(N)N (relative stereo)
[A] 11.09

[Q] State, in one line, measured Ca conc. ± standard error (average blood calcium concentration) of CCCCC(NC(=O)C(CC(C)C)NC(=O)OCc1ccccc1)C(=O)CF (stereo not shown)
[A] 11.09

[Q] State, in one line, measured Ca conc. ± standard error (average blood calcium concentration) of CC(NC(=O)C(Cc1ccccc1)NC(=O)OCc1ccccc1)C(=O)CF (stereo not shown)
[A] 12.02

[Q] State, in one line, measured Ca conc. ± standard error (average blood calcium concentration) of CCCCC(NC(=O)C(CC(C)C)NC(C)=O)C(=O)CF (stereo not shown)
[A] 10.49

Data provenance is patent US5399743A.
